Data provenance is ChEMBL document CHEMBL1145378.

Protocol summary: Permeability from apical to basolateral side of the Caco-2 cell membrane
Type: ADME, cell-based
Condition info: human
Recorded metric: Papp A→B (×10⁻⁶ cm/s)
Quick note: give the figure in ×10⁻⁶ cm/s, leave out the unit.

Molecule	Papp A→B / ×10⁻⁶ cm/s
CS(=O)(=O)Nc1ccc(CCN(CCOc2ccc(NS(C)(=O)=O)cc2)c2ccc([N+](=O)[O-])c3nonc23)cc1	3.7

Recorded result, CN(CCOc1ccc(NS(C)(=O)=O)cc1)CCc1ccc(NS(C)(=O)=O)cc1 [DOFETILIDE] , Papp A→B: 15.7

----------
Protocol summary: Permeability from basolateral to apical side of the Caco-2 cell membrane
Type: ADME, cell-based
Condition info: human
Each record here notes measured Papp B→A.
Quick note: give the figure in ×10⁻⁶ cm/s, leave out the unit.

Compound	Papp B→A / ×10⁻⁶ cm/s
CN(CCOc1ccc(NS(C)(=O)=O)cc1)CCc1ccc(NS(C)(=O)=O)cc1 [DOFETILIDE]	14.3

// next item, Papp B→A requested
Recorded result, `CS(=O)(=O)Nc1ccc(CCN(CCOc2ccc(NS(C)(=O)=O)cc2)c2ccc([N+](=O)[O-])c3nonc23)cc1` , Papp B→A: 18

----------
Each record here notes measured Ki.
Target entity: Voltage-gated inwardly rectifying potassium channel KCNH2 (Homo sapiens, UniProt Q12809)
Sequence (Q12809 whole entry): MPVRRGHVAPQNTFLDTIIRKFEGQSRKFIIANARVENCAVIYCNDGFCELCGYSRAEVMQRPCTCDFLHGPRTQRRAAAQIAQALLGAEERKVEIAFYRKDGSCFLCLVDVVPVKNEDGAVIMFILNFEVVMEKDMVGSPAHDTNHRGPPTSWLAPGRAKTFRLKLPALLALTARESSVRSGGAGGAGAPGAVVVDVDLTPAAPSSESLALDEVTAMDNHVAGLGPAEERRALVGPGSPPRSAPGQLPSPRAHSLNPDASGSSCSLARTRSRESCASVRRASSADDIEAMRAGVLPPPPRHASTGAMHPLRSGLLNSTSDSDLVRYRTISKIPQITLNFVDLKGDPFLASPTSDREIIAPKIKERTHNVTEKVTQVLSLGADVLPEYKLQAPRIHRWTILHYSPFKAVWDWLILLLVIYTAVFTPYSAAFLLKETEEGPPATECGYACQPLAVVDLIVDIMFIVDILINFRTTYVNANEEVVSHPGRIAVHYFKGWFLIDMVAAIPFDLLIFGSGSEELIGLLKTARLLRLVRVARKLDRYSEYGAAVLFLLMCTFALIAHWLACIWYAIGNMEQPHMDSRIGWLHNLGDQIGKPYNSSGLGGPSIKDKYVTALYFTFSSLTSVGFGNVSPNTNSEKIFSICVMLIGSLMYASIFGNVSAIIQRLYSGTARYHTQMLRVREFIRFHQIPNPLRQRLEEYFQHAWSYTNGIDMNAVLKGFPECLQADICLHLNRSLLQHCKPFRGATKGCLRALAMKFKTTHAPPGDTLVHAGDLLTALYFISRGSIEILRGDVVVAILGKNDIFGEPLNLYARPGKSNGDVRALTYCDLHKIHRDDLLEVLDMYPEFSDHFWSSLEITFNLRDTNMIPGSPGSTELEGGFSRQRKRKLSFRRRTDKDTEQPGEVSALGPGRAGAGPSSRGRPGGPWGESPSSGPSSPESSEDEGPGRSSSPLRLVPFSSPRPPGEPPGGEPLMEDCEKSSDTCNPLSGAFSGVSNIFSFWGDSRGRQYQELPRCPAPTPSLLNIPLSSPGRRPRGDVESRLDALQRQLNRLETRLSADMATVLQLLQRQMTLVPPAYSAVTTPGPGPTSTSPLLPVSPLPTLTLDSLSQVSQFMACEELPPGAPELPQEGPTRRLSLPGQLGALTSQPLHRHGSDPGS
Quick note: give the figure in nM, leave out the unit.

As a guide, the following entries are already answered.
Compound	Target entity	Ki, nM
CN(C)c1ccc2c(c1)Oc1cc(N(C)C)ccc1C21OC(=O)c2cc(C(=O)NCCCCCCN(CCOc3ccc(NS(C)(=O)=O)cc3)CCc3ccc(NS(C)(=O)=O)cc3)ccc21	Voltage-gated inwardly rectifying potassium channel KCNH2 (Homo sapiens, UniProt Q12809)	89
CC1(C)C2=C3C=C4C5=[N+](CCC4OC3CCN2c2ccc(CCCCCC(=O)NCCCCCCN(CCOc3ccc(NS(C)(=O)=O)cc3)CCc3ccc(NS(C)(=O)=O)cc3)cc21)c1ccc(S(=O)(=O)[O-])cc1C5(C)C (configuration not stated)	Voltage-gated inwardly rectifying potassium channel KCNH2 (Homo sapiens, UniProt Q12809)	10
CC1(C)C2=C3C=C4C5=[N+](CCC4OC3CCN2c2ccc(CC(=O)NCCN(CCOc3ccc(NS(C)(=O)=O)cc3)CCc3ccc(NS(C)(=O)=O)cc3)cc21)c1ccc(S(=O)(=O)[O-])cc1C5(C)C (configuration not stated)	Voltage-gated inwardly rectifying potassium channel KCNH2 (Homo sapiens, UniProt Q12809)	7300
CC1(C)C2=C3C=C4C5=[N+](CCC4OC3CCN2c2ccc(CC(=O)NCCCN(CCOc3ccc(NS(C)(=O)=O)cc3)CCc3ccc(NS(C)(=O)=O)cc3)cc21)c1ccc(S(=O)(=O)[O-])cc1C5(C)C (configuration not stated)	Voltage-gated inwardly rectifying potassium channel KCNH2 (Homo sapiens, UniProt Q12809)	160

Recorded result, CC1(C)C2=C3C=C4C5=[N+](CCC4OC3CCN2c2ccc(CC(=O)NCCCCN(CCOc3ccc(NS(C)(=O)=O)cc3)CCc3ccc(NS(C)(=O)=O)cc3)cc21)c1ccc(S(=O)(=O)[O-])cc1C5(C)C (configuration not stated) , Ki: 18

Recorded result, `CS(=O)(=O)Nc1ccc(CCN(CCOc2ccc(NS(C)(=O)=O)cc2)C(=O)c2ccc3c(c2)C(=O)OC32c3ccc(O)cc3Oc3cc(O)ccc32)cc1` , Ki: 980

Recorded result, `CS(=O)(=O)Nc1ccc(CCN(CCCCCCNC(=O)c2ccc3c(c2)C(=O)OC32c3ccc(O)cc3Oc3cc(O)ccc32)CCOc2ccc(NS(C)(=O)=O)cc2)cc1` , Ki: 15

----------
Target entity: hERG (KCNH2) (Homo sapiens)
Protocol summary: in vitro
Condition info: HEK293 cells that express hERG
Recorded metric: inhibition at 0.025 µM
Express the reported value numerically, then name its unit.

Recorded result, CN(CCOc1ccc(NS(C)(=O)=O)cc1)CCc1ccc(NS(C)(=O)=O)cc1 [DOFETILIDE] , inhibition at 0.025 µM: 80%

----------
Record: pKi reported on Voltage-gated inwardly rectifying potassium channel KCNH2 (Homo sapiens, UniProt Q12809).
// scale note: pKi = -log10(conc_M); give the bare number

As a guide, the following entries are already answered.
Molecule	Target entity	Measurement
CC1(C)C2=C3C=C4C5=[N+](CCC4OC3CCN2c2ccc(CCC(=O)NCCCCCCN(CCOc3ccc(NS(C)(=O)=O)cc3)CCc3ccc(NS(C)(=O)=O)cc3)cc21)c1ccc(S(=O)(=O)[O-])cc1C5(C)C (stereo not given)	Voltage-gated inwardly rectifying potassium channel KCNH2 (Homo sapiens, UniProt Q12809)	7.72
CCN1CCCc2cc3c(cc21)OC1=CC2=[N+](CCCC(=O)N(CCOc4ccc(NS(C)(=O)=O)cc4)CCc4ccc(NS(C)(=O)=O)cc4)CCCC2=CC1N3 (stereo not given)	Voltage-gated inwardly rectifying potassium channel KCNH2 (Homo sapiens, UniProt Q12809)	8.44

// next item, pKi requested
Recorded result, CC1(C)C2=C3C=C4C5=[N+](CCC4OC3CCN2c2ccc(CC(=O)NCCCCCN(CCOc3ccc(NS(C)(=O)=O)cc3)CCc3ccc(NS(C)(=O)=O)cc3)cc21)c1ccc(S(=O)(=O)[O-])cc1C5(C)C (stereo not given) , pKi: 7.89
